- assay_info: Selectivity index, ratio of IC50 for rat L6 cells to IC50 for chloroquine-resistant Plasmodium falciparum K1
- Format: toxicity, cell-based
- condition_info: read-out: Ratio IC50
attribute_measured: selectivity ratio
The reply should be a number, written without any unit.

Check out these entries, answers already filled in.
CC(C)NC(=N)c1ccc(OCCCCCOc2ccc(C(=N)NC(C)C)nc2)cn1 | 24700
CO/N=C(/N)c1ccc(OCCCCCOc2ccc(/C(N)=N\OC)nc2)cn1 | 11
N=C(N)c1ccc(OCCCCCOc2ccc(C(=N)N)nc2)cn1 | 544
N=C(N)c1cccc(OCCCCCOc2cccc(C(=N)N)n2)n1 | 4220
c1cc(OCCCCCOc2ccc(C3=NCCN3)cn2)ncc1C1=NCCN1 | 60

We next turn to a different molecule, shown below.
Problem: Look up selectivity ratio for this molecule: "N=C(N)c1cc(OCCCCCOc2ccnc(C(=N)N)c2)ccn1"
Result: 3710

====

- assay_info: Selectivity index, ratio of IC50 for rat L6 cells to IC50 for axenic amastigotes of Leishmania donovani MHOM/SD/62/1S-CL2D
- Format: toxicity, cell-based
- condition_info: read-out: Ratio IC50
# note: exactly 2 is not below, so it is no; use yes for selectivity ratio strictly under it

The examples below pair each entry with its known result.
N=C(N)c1ccc(OCCCCCOc2ccc(C(=N)N)nc2)cn1 | no
N=C(N)c1ccc(OCCCCCOc2ccc(C(=N)N)cn2)nc1 | no
N/C(=N\O)c1cc(OCCCCCOc2ccnc(/C(N)=N/O)c2)ccn1 | no
N/C(=N/O)c1ccc(OCCCCCOc2ccc(/C(N)=N\O)nc2)cn1 | yes
c1cc(OCCCCCOc2ccc(C3=NCCN3)cn2)ncc1C1=NCCN1 | yes
N/C(=N\O)c1ccc(OCCCCCOc2ccc(/C(N)=N\O)cn2)nc1 | yes
CO/N=C(\N)c1cc(OCCCCCOc2ccnc(/C(N)=N/OC)c2)ccn1 | yes
N/C(=N\O)c1cccc(OCCCCCOc2cccc(/C(N)=N/O)n2)n1 | yes
N=C(N)c1cccc(OCCCCCOc2cccc(C(=N)N)n2)n1 | no
CO/N=C(/N)c1ccc(OCCCCCOc2ccc(/C(N)=N\OC)nc2)cn1 | yes

Problem: hey, is selectivity ratio for "CC(C)NC(=N)c1ccc(OCCCCCOc2ccc(C(=N)NC(C)C)nc2)cn1" lower than 2 or not?
Result: no

Problem: hey, is selectivity ratio for "c1cc(OCCCCCOc2cccc(C3=NCCN3)n2)nc(C2=NCCN2)c1" lower than 2 or not?
Result: yes

Problem: hey, is selectivity ratio for "c1cc(OCCCCCOc2ccnc(C3=NCCN3)c2)cc(C2=NCCN2)n1" lower than 2 or not?
Result: yes

====

Readings of log10(IC50) for the listed compounds
- System: L6
- assay_info: Cytotoxicity against rat L6 cells after 70 hrs by alamar blue assay
- Format: cell-based
- condition_info: L6, 70 h
The base-10 logarithm of IC50, taken with IC50 in µM, is what appears here.

N/C(=N\O)c1cc(OCCCCCOc2ccnc(/C(N)=N/O)c2)ccn1 | 2.20

Problem: Look up log10(IC50) for this compound: "c1cc(OCCCCCOc2ccnc(C3=NCCN3)c2)cc(C2=NCCN2)n1"
Result: 1.91

Problem: Look up log10(IC50) for this compound: "c1cc(C2=NCCN2)ncc1OCCCCCOc1ccc(C2=NCCN2)nc1"
Result: 1.92

Problem: Look up log10(IC50) for this compound: "N=C(N)c1ccc(OCCCCCOc2ccc(C(=N)N)cn2)nc1"
Result: 2.14

Problem: Look up log10(IC50) for this compound: "N/C(=N\O)c1cccc(OCCCCCOc2cccc(/C(N)=N/O)n2)n1"
Result: 1.72

====

- System: Leishmania donovani
- assay_info: Antileishmanial activity against axenic amastigotes of Leishmania donovani MHOM/SD/62/1S-CL2D after 72 hrs
- Format: functional, organism-based
# note: exactly 20 µM is not below, so it is rule not met; use rule met for IC50 strictly under it

N=C(N)c1cccc(OCCCCCOc2cccc(C(=N)N)n2)n1 | rule met
N/C(=N\O)c1cc(OCCCCCOc2ccnc(/C(N)=N/O)c2)ccn1 | rule not met
c1cc(OCCCCCOc2ccc(C3=NCCN3)cn2)ncc1C1=NCCN1 | rule not met

Problem: hey, is IC50 for "CO/N=C(/N)c1ccc(OCCCCCOc2ccc(/C(N)=N\OC)nc2)cn1" lower than 20 µM or not?
Result: rule not met

Problem: hey, is IC50 for "c1cc(OCCCCCOc2cccc(C3=NCCN3)n2)nc(C2=NCCN2)c1" lower than 20 µM or not?
Result: rule not met

====

- assay_info: Selectivity index, ratio of IC50 for rat L6 cells to IC50 for chloroquine-resistant Plasmodium falciparum K1
- Assay type: toxicity, cell-based
- condition_info: read-out: Ratio IC50
attribute_measured: selectivity ratio

Check out these entries, answers already filled in.
CO/N=C(\N)c1ccc(OCCCCCOc2ccc(/C(N)=N\OC)cn2)nc1 | > 83
N/C(=N/O)c1ccc(OCCCCCOc2ccc(/C(N)=N\O)nc2)cn1 | < 16
CC(C)NC(=N)c1ccc(OCCCCCOc2ccc(C(=N)NC(C)C)cn2)nc1 | > 605
CO/N=C(\N)c1cc(OCCCCCOc2ccnc(/C(N)=N/OC)c2)ccn1 | < 69

Problem: Look up selectivity ratio for this molecule: "N/C(=N\O)c1cc(OCCCCCOc2ccnc(/C(N)=N/O)c2)ccn1"
Result: < 76

====

- assay_info: Selectivity index, ratio of IC50 for rat L6 cells to IC50 for bloodstream Trypanosoma brucei rhodesiense STIB900
- Type: toxicity, cell-based
- condition_info: read-out: Ratio IC50
Readings of selectivity ratio for the listed molecules

CC(C)NC(=N)c1cc(OCCCCCOc2ccnc(C(=N)NC(C)C)c2)ccn1 | > 91

Problem: Look up selectivity ratio for this molecule: "CO/N=C(\N)c1ccc(OCCCCCOc2ccc(/C(N)=N\OC)cn2)nc1"
Result: > 7

Problem: Look up selectivity ratio for this molecule: "CC(C)NC(=N)c1ccc(OCCCCCOc2ccc(C(=N)NC(C)C)cn2)nc1"
Result: > 562

Problem: Look up selectivity ratio for this molecule: "CO/N=C(/N)c1ccc(OCCCCCOc2ccc(/C(N)=N\OC)nc2)cn1"
Result: < 1

====

- Test system: L6
- assay_info: Cytotoxicity against rat L6 cells after 70 hrs by alamar blue assay
- Type: cell-based
- condition_info: L6, 70 h
attribute_measured: pIC50
Scale explanation: pIC50 corresponds to minus log10 of a concentration expressed in moles per litre.

Check out these entries, answers already filled in.
N=C(N)c1cccc(OCCCCCOc2cccc(C(=N)N)n2)n1 | 3.94
N/C(=N/O)c1ccc(OCCCCCOc2ccc(/C(N)=N\O)nc2)cn1 | 3.78
N=C(N)c1ccc(OCCCCCOc2ccc(C(=N)N)nc2)cn1 | 5.31

Problem: Look up pIC50 for this molecule: "c1cc(OCCCCCOc2cccc(C3=NCCN3)n2)nc(C2=NCCN2)c1"
Result: 4.84

====

- Tested on: Leishmania donovani
- assay_info: Antileishmanial activity against axenic amastigotes of Leishmania donovani MHOM/SD/62/1S-CL2D after 72 hrs
- Format: functional, organism-based
Readings of IC50 for the listed compounds

N/C(=N\O)c1ccc(OCCCCCOc2ccc(/C(N)=N\O)cn2)nc1 | > 100 µM
N=C(N)c1ccc(OCCCCCOc2ccc(C(=N)N)nc2)cn1 | 0.47 µM
N/C(=N\O)c1cccc(OCCCCCOc2cccc(/C(N)=N/O)n2)n1 | > 50 µM

Problem: Look up IC50 for this compound: "CO/N=C(\N)c1cc(OCCCCCOc2ccnc(/C(N)=N/OC)c2)ccn1"
Result: > 100 µM

Problem: Look up IC50 for this compound: "c1cc(C2=NCCN2)ncc1OCCCCCOc1ccc(C2=NCCN2)nc1"
Result: 36 µM

Problem: Look up IC50 for this compound: "CO/N=C(\N)c1ccc(OCCCCCOc2ccc(/C(N)=N\OC)cn2)nc1"
Result: > 100 µM

Problem: Look up IC50 for this compound: "CC(C)NC(=N)c1cc(OCCCCCOc2ccnc(C(=N)NC(C)C)c2)ccn1"
Result: > 100 µM

Problem: Look up IC50 for this compound: "CC(C)NC(=N)c1ccc(OCCCCCOc2ccc(C(=N)NC(C)C)cn2)nc1"
Result: > 100 µM

Problem: Look up IC50 for this compound: "N/C(=N/O)c1ccc(OCCCCCOc2ccc(/C(N)=N\O)nc2)cn1"
Result: > 100 µM

Problem: Look up IC50 for this compound: "c1cc(OCCCCCOc2ccnc(C3=NCCN3)c2)cc(C2=NCCN2)n1"
Result: > 100 µM

Problem: Look up IC50 for this compound: "CC(C)NC(=N)c1ccc(OCCCCCOc2ccc(C(=N)NC(C)C)nc2)cn1"
Result: 6 µM

Problem: Look up IC50 for this compound: "N=C(N)c1ccc(OCCCCCOc2ccc(C(=N)N)cn2)nc1"
Result: 39 µM

Problem: Look up IC50 for this compound: "N=C(N)c1cc(OCCCCCOc2ccnc(C(=N)N)c2)ccn1"
Result: 38 µM
